system: CLK2; settings: concentration: 1 μM, replicates: in singlicate; n = 1
Would you mind telling me the reported %Inh of each entry?
Only the number, expressed in %, is required.

// lookup %Inh | system=CLK2 | key= CCc1nc(-c2cccc(C)c2)c(-c2ccncc2)s1
6

// lookup %Inh | system=CLK2 | key= Nc1ncnc2c1ncn2-c1cccc(F)c1 [SKF-97560]
0

// lookup %Inh | system=CLK2 | key= Cl.c1ccc(Cn2cnc3cc(Nc4ncnc5ccccc45)ccc32)cc1 [GW272142]
0

// lookup %Inh | system=CLK2 | key= O=C(Nc1n[nH]c2cc(-c3ccccc3F)ccc12)C1CC1 [SB-733371]
0

// lookup %Inh | system=CLK2 | key= COc1ccc(-c2coc3ccc(-c4nnc(SCc5cccc(C#N)c5)o4)cc23)cc1;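 further: KINOMEscan kinase panel screen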
10
